system: Escherichia coli TOP10; assay: shrunken log2 fold change of peptide-encoding DNA abundance (4.5 h post-induction vs induction); higher = less antimicrobial activity (less host growth inhibition); details: time post-induction: 4.5 h; library: site-saturation at positions 5, 18, 19, 20

| Primary Sequence | shrunken log2 fold change |
| --- | --- |
| RRIRYRPPRLPRPRPRPGIQPRP | -0.0445 |
| RRIRRRPPRLPRPRPRPQQTPRP | -0.0146 |
| RRIRCRPPRLPRPRPRPHLHPRP | -0.626 |
| RRIRYRPPRLPRPRPRPYPKPRP | -0.201 |
| RRIRGRPPRLPRPRPRPDQDPRP | 1.06 |
| RRIRGRPPRLPRPRPRPKPCPRP | 0.422 |
| RRIRFRPPRLPRPRPRPYPLPRP | -0.604 |
| RRIRNRPPRLPRPRPRPDHYPRP | -0.202 |
| RRIRVRPPRLPRPRPRPMHHPRP | -0.257 |
| RRIRCRPPRLPRPRPRPDQRPRP | -0.254 |
| RRIRMRPPRLPRPRPRPPELPRP | 0.372 |
| RRIRLRPPRLPRPRPRPVDMPRP | -0.375 |
| RRIRGRPPRLPRPRPRPVIMPRP | 0.258 |
| RRIRIRPPRLPRPRPRPFQPPRP | -0.407 |
| RRIRCRPPRLPRPRPRPNEPPRP | 0.0197 |
| RRIRCRPPRLPRPRPRPNPYPRP | -0.44 |
| RRIRCRPPRLPRPRPRPVEDPRP | -0.0221 |
| RRIRHRPPRLPRPRPRPYWEPRP | -0.238 |
| RRIRCRPPRLPRPRPRPFVVPRP | -0.633 |
| RRIRWRPPRLPRPRPRPGAQPRP | 0.655 |
| RRIRCRPPRLPRPRPRPHHGPRP | -0.261 |
| RRIRERPPRLPRPRPRPMRQPRP | 0.575 |
| RRIRMRPPRLPRPRPRPHIIPRP | -0.991 |
| RRIRPRPPRLPRPRPRPKTFPRP | -0.322 |
| RRIRSRPPRLPRPRPRPYSHPRP | -0.712 |
| RRIRVRPPRLPRPRPRPWMSPRP | -0.076 |
| RRIRERPPRLPRPRPRPHEEPRP | 0.13 |
| RRIRWRPPRLPRPRPRPQDEPRP | -0.143 |
| RRIRHRPPRLPRPRPRPKISPRP | -0.395 |

====

test system: Escherichia coli TOP10; assay: shrunken log2 fold change of peptide-encoding DNA abundance (4.5 h post-induction vs induction); higher = less antimicrobial activity (less host growth inhibition); details: time post-induction: 4.5 h; library: site-saturation at positions 5, 18, 19, 20

| Primary Sequence | Test Target | shrunken log2 fold change |
| --- | --- | --- |
| RRIRERPPRLPRPRPRPCSIPRP | Escherichia coli TOP10 | -0.471 |
| RRIRVRPPRLPRPRPRPNFGPRP | Escherichia coli TOP10 | -0.098 |
| RRIRWRPPRLPRPRPRPAVMPRP | Escherichia coli TOP10 | 0.0971 |
| RRIRKRPPRLPRPRPRPKVMPRP | Escherichia coli TOP10 | 0.0802 |
| RRIRRRPPRLPRPRPRPTRPPRP | Escherichia coli TOP10 | 1.02 |
| RRIRIRPPRLPRPRPRPYCDPRP | Escherichia coli TOP10 | -0.0269 |
| RRIRWRPPRLPRPRPRPALIPRP | Escherichia coli TOP10 | 0.0212 |
| RRIRERPPRLPRPRPRPEMSPRP | Escherichia coli TOP10 | 0.0528 |
| RRIRCRPPRLPRPRPRPCLEPRP | Escherichia coli TOP10 | -0.0191 |
| RRIRARPPRLPRPRPRPEDEPRP | Escherichia coli TOP10 | 0.182 |
| RRIRNRPPRLPRPRPRPWYLPRP | Escherichia coli TOP10 | -0.0197 |
| RRIRVRPPRLPRPRPRPWFLPRP | Escherichia coli TOP10 | -0.386 |
| RRIRVRPPRLPRPRPRPWGVPRP | Escherichia coli TOP10 | -0.15 |
| RRIRMRPPRLPRPRPRPCGDPRP | Escherichia coli TOP10 | 0.34 |
| RRIRYRPPRLPRPRPRPEDGPRP | Escherichia coli TOP10 | -0.141 |
| RRIRFRPPRLPRPRPRPSEKPRP | Escherichia coli TOP10 | 0.0358 |

====

test system: Escherichia coli TOP10; assay: shrunken log2 fold change of peptide-encoding DNA abundance (4.5 h post-induction vs induction); higher = less antimicrobial activity (less host growth inhibition); conditions: time post-induction: 4.5 h; library: site-saturation at positions 5, 18, 19, 20
Think of -0.006 as a floor: if shrunken log2 fold change stands on it or above, it is true; beneath it, false.

| Primary Sequence | Discrete Label |
| --- | --- |
| RRIRYRPPRLPRPRPRPNTRPRP | false |
| RRIRTRPPRLPRPRPRPKSNPRP | false |
| RRIRMRPPRLPRPRPRPGECPRP | false |
| RRIRERPPRLPRPRPRPMTCPRP | false |
| RRIRSRPPRLPRPRPRPWFRPRP | true |
| RRIRHRPPRLPRPRPRPESHPRP | false |
| RRIRSRPPRLPRPRPRPQIQPRP | false |
| RRIRGRPPRLPRPRPRPEARPRP | true |
| RRIRSRPPRLPRPRPRPVHKPRP | false |
| RRIRDRPPRLPRPRPRPPRQPRP | true |
| RRIRARPPRLPRPRPRPARWPRP | true |
| RRIRARPPRLPRPRPRPKPTPRP | true |
| RRIRQRPPRLPRPRPRPRSMPRP | true |
| RRIRHRPPRLPRPRPRPDSTPRP | true |
| RRIRIRPPRLPRPRPRPEIGPRP | false |
| RRIRIRPPRLPRPRPRPTKFPRP | false |
| RRIRCRPPRLPRPRPRPWKDPRP | true |
| RRIRVRPPRLPRPRPRPSHMPRP | false |
| RRIRNRPPRLPRPRPRPSSFPRP | false |
| RRIRQRPPRLPRPRPRPWHPPRP | false |
| RRIRDRPPRLPRPRPRPYPDPRP | false |
| RRIRWRPPRLPRPRPRPYVAPRP | false |
| RRIRLRPPRLPRPRPRPKKAPRP | false |
| RRIRFRPPRLPRPRPRPMVMPRP | false |
| RRIRRRPPRLPRPRPRPTIMPRP | true |
| RRIRPRPPRLPRPRPRPKQSPRP | true |
| RRIRLRPPRLPRPRPRPVRVPRP | true |
| RRIRERPPRLPRPRPRPGYEPRP | true |
| RRIRQRPPRLPRPRPRPHIQPRP | false |
| RRIRERPPRLPRPRPRPEKGPRP | false |
| RRIRYRPPRLPRPRPRPSRIPRP | true |
| RRIRIRPPRLPRPRPRPCWPPRP | false |
| RRIRHRPPRLPRPRPRPFLKPRP | false |
| RRIRLRPPRLPRPRPRPRTTPRP | true |
| RRIRPRPPRLPRPRPRPATRPRP | true |
| RRIRGRPPRLPRPRPRPKGLPRP | true |
| RRIRIRPPRLPRPRPRPIFNPRP | false |
| RRIRMRPPRLPRPRPRPCAMPRP | true |

====

test system: Escherichia coli TOP10; assay: shrunken log2 fold change of peptide-encoding DNA abundance (4.5 h post-induction vs induction); higher = less antimicrobial activity (less host growth inhibition); settings: time post-induction: 4.5 h; library: site-saturation at positions 5, 18, 19, 20
Result Type: shrunken log2 fold change

| Primary Sequence | Result Type | Value Observed |
| --- | --- | --- |
| RRIRWRPPRLPRPRPRPTKVPRP | shrunken log2 fold change | -0.0596 |
| RRIRRRPPRLPRPRPRPACVPRP | shrunken log2 fold change | 0.451 |
| RRIRCRPPRLPRPRPRPEKPPRP | shrunken log2 fold change | 0.118 |
| RRIRERPPRLPRPRPRPWLHPRP | shrunken log2 fold change | -0.262 |
| RRIRDRPPRLPRPRPRPAVEPRP | shrunken log2 fold change | 0.845 |

====

Each entry below carries its recorded shrunken log2 fold change.
system: Escherichia coli TOP10; assay: shrunken log2 fold change of peptide-encoding DNA abundance (4.5 h post-induction vs induction); higher = less antimicrobial activity (less host growth inhibition); details: time post-induction: 4.5 h; library: site-saturation at positions 5, 18, 19, 20;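 further: peptides expressed intracellularly from a pBAD plasmid library in pooled LB shake-flask culture, induced with 0.3% L-arabinose, DNA abundance read by NGS, three biological replicates, DESeq2 with apeglm shrinkage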

| Primary Sequence | shrunken log2 fold change |
| --- | --- |
| RRIRSRPPRLPRPRPRPRKEPRP | 0.131 |
| RRIRPRPPRLPRPRPRPKMCPRP | 0.0196 |
| RRIRCRPPRLPRPRPRPIEEPRP | 0.008 |
| RRIRLRPPRLPRPRPRPYLHPRP | -0.447 |
| RRIRVRPPRLPRPRPRPHRWPRP | 0.0461 |
| RRIRGRPPRLPRPRPRPSNSPRP | -0.203 |
| RRIRNRPPRLPRPRPRPCWTPRP | -0.0133 |
| RRIRWRPPRLPRPRPRPMRGPRP | 0.754 |
| RRIRDRPPRLPRPRPRPKRWPRP | 0.0314 |
| RRIRGRPPRLPRPRPRPHFSPRP | -0.115 |
| RRIRYRPPRLPRPRPRPAWHPRP | -0.249 |
| RRIRIRPPRLPRPRPRPKGQPRP | 0.143 |
| RRIRQRPPRLPRPRPRPSWEPRP | -0.141 |
| RRIRMRPPRLPRPRPRPSPSPRP | 0.588 |
| RRIRIRPPRLPRPRPRPTKSPRP | -0.141 |
| RRIRCRPPRLPRPRPRPTQPPRP | 0.222 |
| RRIRYRPPRLPRPRPRPWMFPRP | -0.273 |
| RRIRHRPPRLPRPRPRPLLVPRP | -0.167 |
| RRIRARPPRLPRPRPRPPNHPRP | 0.305 |
| RRIRWRPPRLPRPRPRPQFSPRP | 0.053 |
| RRIRHRPPRLPRPRPRPGKYPRP | -0.0822 |
